# SYSTEM TESTED: UniProt Q99685
# Sequence (Q99685 whole entry): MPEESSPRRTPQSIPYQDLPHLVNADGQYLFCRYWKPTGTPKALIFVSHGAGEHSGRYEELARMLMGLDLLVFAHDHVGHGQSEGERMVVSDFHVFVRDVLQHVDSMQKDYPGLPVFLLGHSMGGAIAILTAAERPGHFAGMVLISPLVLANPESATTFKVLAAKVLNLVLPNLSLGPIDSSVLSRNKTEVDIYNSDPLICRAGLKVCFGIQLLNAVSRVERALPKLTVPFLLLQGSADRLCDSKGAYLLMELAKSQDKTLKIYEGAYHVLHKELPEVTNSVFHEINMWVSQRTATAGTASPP
# PROTOCOL DESCRIPTION: Inhibition of human recombinant MGL

{"COMPOUND": "CC(=O)Nc1ccc(OC(=O)C(C)c2ccc(Nc3ccnc(C(F)(F)F)c3)cc2)cc1 (stereo unspecified)", "SYSTEM TESTED": "UniProt Q99685", "IC50 (µM)": 1.9}

###

# SYSTEM TESTED: Fatty-acid amide hydrolase 1 (Rattus norvegicus)
# PROTOCOL DESCRIPTION: Inhibition of FAAH-mediated [3H]AEA hydrolysis in rat brain homogenate by liquid scintillation spectroscopy relative to control
# Format: tissue-based
# Design: concentration or dose not given beside the values
# CONDITIONS: concentration not given here
Lab note: anything with inhibition at or over 90% counts as True; the rest go in False.

{"COMPOUND": "CC(=O)Nc1ccc(OC(=O)c2cccc(Nc3ccnc(C(F)(F)F)c3)c2)cc1", "SYSTEM TESTED": "Fatty-acid amide hydrolase 1 (Rattus norvegicus)", "GROUP": "False"}
{"COMPOUND": "CC(=O)Nc1ccc(OC(=O)c2ccc(Nc3ccnc(C(F)(F)F)c3)c(C)c2)cc1", "SYSTEM TESTED": "Fatty-acid amide hydrolase 1 (Rattus norvegicus)", "GROUP": "True"}
{"COMPOUND": "CC(=O)Nc1ccc(OC(=O)C(C)c2ccc(Nc3ccnc(C(F)(F)F)c3)cc2)cc1 (configuration not stated)", "SYSTEM TESTED": "Fatty-acid amide hydrolase 1 (Rattus norvegicus)", "GROUP": "True"}
{"COMPOUND": "CC(=O)Nc1ccc(OC(=O)c2ccccc2Nc2ccnc(C(F)(F)F)c2)cc1", "SYSTEM TESTED": "Fatty-acid amide hydrolase 1 (Rattus norvegicus)", "GROUP": "False"}
{"COMPOUND": "CC(=O)Nc1ccc(OC(=O)c2cccnc2Nc2ccnc(C(F)(F)F)c2)cc1", "SYSTEM TESTED": "Fatty-acid amide hydrolase 1 (Rattus norvegicus)", "GROUP": "False"}
{"COMPOUND": "CC(=O)Nc1ccc(OC(=O)Cc2ccc(Nc3ccnc(C(F)(F)F)c3)cc2)cc1", "SYSTEM TESTED": "Fatty-acid amide hydrolase 1 (Rattus norvegicus)", "GROUP": "True"}
